Listed below: Ki values for each entry.
System tested: Plasma kallikrein (Homo sapiens, UniProt P03952)
Sequence (P03952 20-390 limits assumed): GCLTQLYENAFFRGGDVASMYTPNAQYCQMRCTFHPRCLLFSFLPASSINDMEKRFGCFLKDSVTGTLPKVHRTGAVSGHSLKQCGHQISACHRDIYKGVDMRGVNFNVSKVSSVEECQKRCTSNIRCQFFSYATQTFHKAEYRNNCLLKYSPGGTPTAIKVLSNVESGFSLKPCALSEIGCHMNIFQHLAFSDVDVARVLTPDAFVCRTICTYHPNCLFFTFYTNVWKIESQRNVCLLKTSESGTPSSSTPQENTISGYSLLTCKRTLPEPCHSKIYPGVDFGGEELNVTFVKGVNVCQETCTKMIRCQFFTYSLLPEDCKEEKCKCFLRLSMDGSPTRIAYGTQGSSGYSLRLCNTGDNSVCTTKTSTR
Sequence (P03952 391-638 limits assumed): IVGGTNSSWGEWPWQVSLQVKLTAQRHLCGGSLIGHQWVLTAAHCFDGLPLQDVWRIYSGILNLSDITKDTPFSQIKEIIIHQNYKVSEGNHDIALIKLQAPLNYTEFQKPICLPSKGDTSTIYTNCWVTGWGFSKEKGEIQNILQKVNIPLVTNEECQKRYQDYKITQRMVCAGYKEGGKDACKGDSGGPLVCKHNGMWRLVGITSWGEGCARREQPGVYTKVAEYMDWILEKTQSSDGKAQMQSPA
Assay remarks: Inhibition of plasma kallikrein
Provide only the numeric value, understood in µM.

CC[C@H](C)[C@H]1NC(=O)C[C@H](Cc2cccc(CN)c2)NC(=O)[C@@H]2CCCN2C(=O)[C@@H](NC(C)=O)CNC(=O)/C=C/[C@H](Cc2ccc(O)cc2)NC1=O; 3300

Kindly review the next molecule as well.
Quick one: Ki of CC[C@H](C)[C@H]1NC(=O)C[C@H](Cc2cccc(CN)c2)NC(=O)[C@@H]2CCCN2C(=O)[C@@H](NC(=O)CCCCCN)CNC(=O)/C=C/[C@H](Cc2ccc(O)cc2)NC1=O ?
2000
